Kindly supply the reported EC50 values for the records listed here.
target: pFGFR4 (Huh7 cells) (Homo sapiens (Human), UniProt P22455); assay: FGFR4 signaling (pFGFR4) in Huh7 cells (MSD); type: cell-based; settings: read-out: Signaling EC50 (nM) pFGFR4 (Huh)
Sequence (P22455 22-802): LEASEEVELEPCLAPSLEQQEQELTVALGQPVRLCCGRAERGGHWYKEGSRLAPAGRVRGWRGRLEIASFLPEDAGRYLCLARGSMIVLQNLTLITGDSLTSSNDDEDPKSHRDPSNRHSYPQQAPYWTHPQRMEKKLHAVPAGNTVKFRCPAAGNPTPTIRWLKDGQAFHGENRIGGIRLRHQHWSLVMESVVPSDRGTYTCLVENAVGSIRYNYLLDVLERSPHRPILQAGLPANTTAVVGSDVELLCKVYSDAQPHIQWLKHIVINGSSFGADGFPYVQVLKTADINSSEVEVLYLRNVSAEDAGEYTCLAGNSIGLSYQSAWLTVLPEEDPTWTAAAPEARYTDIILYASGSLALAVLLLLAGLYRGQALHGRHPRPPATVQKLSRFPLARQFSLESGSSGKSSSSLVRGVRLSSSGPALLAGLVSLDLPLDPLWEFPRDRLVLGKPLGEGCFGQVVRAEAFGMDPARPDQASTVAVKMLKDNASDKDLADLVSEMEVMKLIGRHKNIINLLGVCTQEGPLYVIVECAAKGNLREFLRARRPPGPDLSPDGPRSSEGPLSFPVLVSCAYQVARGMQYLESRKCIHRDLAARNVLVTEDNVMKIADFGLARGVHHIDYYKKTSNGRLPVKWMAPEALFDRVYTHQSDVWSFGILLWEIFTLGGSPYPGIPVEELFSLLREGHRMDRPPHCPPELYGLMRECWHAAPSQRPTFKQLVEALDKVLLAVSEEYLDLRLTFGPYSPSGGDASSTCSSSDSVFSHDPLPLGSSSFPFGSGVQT

compound="C=CC(=O)N[C@H]1CN(c2cc[nH]n2)C[C@H]1Nc1ncc2cc(-c3c(Cl)c(OC)cc(OC)c3Cl)c(=O)n(C)c2n1 [Compound I-292]" val="< 100 nM"

Your task in this section: give EC50 for each listed record.
1. C=CC(=O)N[C@@H]1CN(c2cc[nH]n2)C[C@@H]1Nc1ncc2cc(-c3c(Cl)c(OC)cc(OC)c3Cl)c(=O)n(C)c2n1 [Compound I-293]
2. C=CC(=O)N[C@H]1COC[C@H]1Nc1ncc2cc(-c3c(Cl)c(OC)cc(OC)c3Cl)c(=O)n(C(C)C)c2n1 [Compound I-296]

101 to 500 nM
< 100 nM

###

molecular target: pFGFR4 (Huh7 cells) (Homo sapiens (Human), UniProt P22455); experiment: FGFR4 signaling (pFGFR4) in Huh7 cells (MSD); type: cell-based; conditions: read-out: Signaling EC50 (nM) pFGFR4 (Huh)
Consider the following molecules; for each one, report its EC50.

molecule="C=CC(=O)NC1CC(=O)CC1Nc1ncc2cc(-c3c(Cl)c(OC)cc(OC)c3Cl)c(=O)n(C)c2n1 (stereo not shown)" val="< 100 nM"
molecule=C=CC(=O)N[C@H]1COC[C@H]1Nc1ncc2cc(-c3cc(OC)cc(OC)c3Cl)c(=O)nc-2n1C val="< 100 nM"
molecule=C=CC(=O)Nc1c(Nc2ncc3cc(-c4c(Cl)c(OC)cc(OC)c4Cl)c(=O)n(C)c3n2)ccc(F)c1F val="101 to 500 nM"
molecule=C=CC(=O)N[C@H]1COC[C@H]1Nc1ncc2cc(-c3c(Cl)c(OC)cc(OC)c3Cl)c(=O)nc-2n1CCO val="< 100 nM"
molecule=C=CC(=O)N[C@H]1COC[C@H]1Nc1ncc2cc(-c3c(Cl)c(OC)cc(OC)c3Cl)c(=O)nc-2n1C1CCOCC1 val="< 100 nM"
molecule=C=CC(=O)N[C@H]1COC[C@H]1Nc1ncc2cc(-c3c(Cl)c(OC)cc(OC)c3Cl)c(=O)[nH]c2n1 val="< 100 nM"
molecule="C=CC(=O)N[C@H]1COC[C@H]1Nc1ncc2cc(-c3cc(OC)cc(OC)c3Cl)c(=O)n(CC3CCN(C(C)=O)C3)c2n1 (stereo partly shown)" val="< 100 nM"
molecule=C=CC(=O)N[C@H]1COC[C@H]1Nc1ncc2cc(-c3c(Cl)c(OC)cc(OC)c3Cl)c(=O)n(C[C@@H]3CCN(C(C)=O)C3)c2n1 val="< 100 nM"
molecule=C=CC(=O)N[C@H]1COC[C@H]1Nc1ncc2cc(-c3cc(OC)cc(OC)c3Cl)c(=O)nc-2n1C[C@H]1CCN(C(C)=O)C1 val="< 100 nM"

Turning now to a further record.
Any idea what its EC50 is? The molecule is "C=CC(=O)Nc1ccccc1Nc1ncc2cc(-c3c(Cl)c(OC)cc(OC(F)F)c3Cl)c(=O)n(C)c2n1"
< 100 nM
